# target or test system: CF98
# test context: read-out: Kd (CF98)
parameter measured: Kd

Measured Kd, O=C(O)CC(O)(CC(=O)O)C(=O)O [citrate] : ~9 mM

* * *

# Tested on: Citron1
# Format: cell-based, HeLa
# test context: read-out: in situ Kd (Citron1); n = 128
parameter measured: Kd (mM)
Give bare numbers, in mM.

Consider O=C(O)CC(O)(CC(=O)O)C(=O)O [citrate] . Its measured Kd is 5.7
